I'd be grateful if you could share measured inhibition of IKZF1 HTRF signal for these entries.
# STUDY_SYSTEM: IKZF1 (dCK*-IKZF1 fusion in HEK293FT)
# ASSAY_DETAILS: inhibition of IKZF1 HTRF signal (DMSO = 0%, pomalidomide 10 uM = 100%); higher = lower IKZF1 protein level
# TEST_CONTEXT: compound concentration: 5 uM, overnight (~20 h)
Numbers only, in %.

[
  {
    "COMPOUND": "CC1(C)CCC2=C(O1)c1ccccc1C(=O)C2=O",
    "STUDY_SYSTEM": "IKZF1 (dCK*-IKZF1 fusion in HEK293FT)",
    "inhibition of IKZF1 HTRF signal (%)": -30
  },
  {
    "COMPOUND": "COc1cc(C(=O)NS(=O)(=O)c2ccccc2C)ccc1Cc1cn(C)c2ccc(NC(=O)OC3CCCC3)cc12 [Zafirlukast]",
    "STUDY_SYSTEM": "IKZF1 (dCK*-IKZF1 fusion in HEK293FT)",
    "inhibition of IKZF1 HTRF signal (%)": -43.3
  },
  {
    "COMPOUND": "CCS(=O)(=O)N(C)[C@@H]1c2cc(C#N)ccc2OC(C)(C)[C@H]1O.CCS(=O)(=O)N(C)[C@H]1c2cc(C#N)ccc2OC(C)(C)[C@@H]1O (racemic) [chromanol-(+/-)]",
    "STUDY_SYSTEM": "IKZF1 (dCK*-IKZF1 fusion in HEK293FT)",
    "inhibition of IKZF1 HTRF signal (%)": -29.6
  },
  {
    "COMPOUND": "CO[C@H]1C[C@@H]2CC[C@@H](C)[C@@](O)(O2)C(=O)C(=O)N2CCCC[C@H]2C(=O)O[C@H]([C@H](C)C[C@@H]2CC[C@@H](O)[C@H](OC)C2)CC(=O)[C@H](C)/C=C(\\C)[C@@H](O)[C@@H](OC)C(=O)[C@H](C)C[C@H](C)/C=C/C=C/C=C/1C [Rapamycin]",
    "STUDY_SYSTEM": "IKZF1 (dCK*-IKZF1 fusion in HEK293FT)",
    "inhibition of IKZF1 HTRF signal (%)": -24.4
  },
  {
    "COMPOUND": "O=C1c2c(O)cccc2Cc2cccc(O)c21",
    "STUDY_SYSTEM": "IKZF1 (dCK*-IKZF1 fusion in HEK293FT)",
    "inhibition of IKZF1 HTRF signal (%)": 14
  },
  {
    "COMPOUND": "Oc1cccc2cc3cccc(O)c3c(O)c12 [dithranol]",
    "STUDY_SYSTEM": "IKZF1 (dCK*-IKZF1 fusion in HEK293FT)",
    "inhibition of IKZF1 HTRF signal (%)": -46.9
  },
  {
    "COMPOUND": "O=C(OC)C1=C(C)NC(C)=C([N+]([O-])=O)[C@H]1[C@]2=CC=CC=C2C(F)(F)F",
    "STUDY_SYSTEM": "IKZF1 (dCK*-IKZF1 fusion in HEK293FT)",
    "inhibition of IKZF1 HTRF signal (%)": -26.8
  },
  {
    "COMPOUND": "CC(CNC1CCCCC1)OC(=O)c1ccccc1 (stereo not given) [hexylcaine]",
    "STUDY_SYSTEM": "IKZF1 (dCK*-IKZF1 fusion in HEK293FT)",
    "inhibition of IKZF1 HTRF signal (%)": -36.3
  }
]

Give one value of inhibition of IKZF1 HTRF signal per listed compound.
1. COC(=O)Nc1nc2cc(C(=O)c3ccccc3)ccc2[nH]1 [Mebendazole]
2. CCCCc1ccc2[nH]c(NC(=O)OC)nc2c1 [parbendazole]

*A*
[9.13, -10.3]

====

Provide the recorded relative growth recovery for the entries that follow.
# System: HEK293FT dCK*-IKZF1
# ASSAY_DETAILS: relative growth recovery (pomalidomide 10 uM = 100%, DMSO = 0%); higher = more growth rescue (IKZF1 fusion degradation)
# TEST_CONTEXT: compound concentration: 5 uM; AraC concentration: 0.3 uM; overnight pretreatment + 4 days AraC
Give bare numbers, in %.

In the examples that follow, each entry is paired with its recorded relative growth recovery.
[
  {
    "COMPOUND": "CCOC(=O)Nc1nc2ccccc2[nH]1",
    "STUDY_SYSTEM": "HEK293FT dCK*-IKZF1",
    "relative growth recovery / %": -1.88
  },
  {
    "COMPOUND": "CCc1c2c(nc3ccc(OC(=O)N4CCC(N5CCCCC5)CC4)cc13)-c1cc3c(c(=O)n1C2)COC(=O)[C@]3(O)CC [irinotecan]",
    "STUDY_SYSTEM": "HEK293FT dCK*-IKZF1",
    "relative growth recovery / %": -13.9
  },
  {
    "COMPOUND": "C=CC[C@@H]1/C=C(\\C)C[C@H](C)C[C@H](OC)[C@H]2O[C@@](O)(C(=O)C(=O)N3CCCC[C@H]3C(=O)O[C@H](/C(C)=C/[C@@H]3CC[C@@H](O)[C@H](OC)C3)[C@H](C)[C@@H](O)CC1=O)[C@H](C)C[C@@H]2OC",
    "STUDY_SYSTEM": "HEK293FT dCK*-IKZF1",
    "relative growth recovery / %": 12.2
  },
  {
    "COMPOUND": "O=C(O)c1ccccc1-c1c2cc(I)c(=O)c(I)c-2oc2c(I)c(O)c(I)cc12",
    "STUDY_SYSTEM": "HEK293FT dCK*-IKZF1",
    "relative growth recovery / %": -1.36
  },
  {
    "COMPOUND": "CCCCC1C(=O)N(c2ccccc2)N(c2ccc(O)cc2)C1=O (centres undefined)",
    "STUDY_SYSTEM": "HEK293FT dCK*-IKZF1",
    "relative growth recovery / %": -12.7
  }
]

Please state relative growth recovery for every compound in the list that follows.
1. O=C1c2c(O)ccc(O)c2C(=O)c2c(NCCNCCO)ccc(NCCNCCO)c21
2. Cc1nnsc1C(=O)Nc1ccc(-n2nc(C(F)(F)F)cc2C(F)(F)F)cc1

*A*
1: -13.7; 2: 0.005

Batch lookup, relative growth recovery per entry.
1. Nc1nc(=O)n([C@H]2C[C@H](O)[C@@H](CO)O2)cc1F
2. CCn1c(=O)[nH]c2ccccc21

*A*
1: -8.98; 2: 0.15

====

# STUDY_SYSTEM: IKZF1 (dCK*-IKZF1 fusion in HEK293FT) (UniProt Q13422)
# Sequence (Q13422 whole entry, looked up, the tested form may be a part): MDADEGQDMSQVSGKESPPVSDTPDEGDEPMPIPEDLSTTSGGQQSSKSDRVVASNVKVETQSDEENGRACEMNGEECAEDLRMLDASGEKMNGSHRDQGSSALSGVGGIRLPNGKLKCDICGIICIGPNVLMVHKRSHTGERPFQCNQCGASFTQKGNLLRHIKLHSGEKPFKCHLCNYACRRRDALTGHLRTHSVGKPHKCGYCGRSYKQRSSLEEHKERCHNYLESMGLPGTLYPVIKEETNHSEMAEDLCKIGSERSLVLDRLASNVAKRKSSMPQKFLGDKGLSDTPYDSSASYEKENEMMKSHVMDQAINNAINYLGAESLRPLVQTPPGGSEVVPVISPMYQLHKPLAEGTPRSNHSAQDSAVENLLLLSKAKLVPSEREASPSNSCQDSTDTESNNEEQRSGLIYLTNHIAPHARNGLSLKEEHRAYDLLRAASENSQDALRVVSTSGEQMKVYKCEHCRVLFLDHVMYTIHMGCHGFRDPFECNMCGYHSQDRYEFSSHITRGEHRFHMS
# ASSAY_DETAILS: inhibition of IKZF1 HTRF signal (DMSO = 0%, pomalidomide 10 uM = 100%); higher = lower IKZF1 protein level
# TEST_CONTEXT: compound concentration: 5 uM, overnight (~20 h)
OBSERVED_PROPERTY: inhibition of IKZF1 HTRF signal (%)
Numbers only, in %.

// known answers, use as guide
[
  {
    "MOLECULE": "CN(CC3)C[C@@H](O)[C@H]3[C@]1=C(OC(C4=CC=CC=C4Cl)=CC2=O)C2=C(O)C=C1O",
    "inhibition of IKZF1 HTRF signal, %": -30.5
  },
  {
    "MOLECULE": "COC(=O)C1=C(C)NC(C)=C(C(=O)OC/C=C/c2ccccc2)C1c1cccc([N+](=O)[O-])c1 (stereo not drawn)",
    "inhibition of IKZF1 HTRF signal, %": 13.9
  }
]

*Q* Entry Nc1c2ccccc2nc2ccccc12 has what inhibition of IKZF1 HTRF signal?
*A* 58.6

====

# Tested on: HEK293FT dCK*-only
# ASSAY_DETAILS: relative growth in counter assay (no AraC = 100%, AraC + DMSO = 0%); higher = more growth rescue independent of IKZF1
# TEST_CONTEXT: compound concentration: 5 uM; AraC concentration: 0.3 uM; overnight pretreatment + 4 days AraC
Where a name gives a salt, the structure may show the parent alone.
OBSERVED_PROPERTY: relative growth in counter assay
# number then unit; no other words

Each compound below has a reported value. Please supply its relative growth in counter assay.
1. CC(O)(C(=O)Nc1ccc(S(=O)(=O)c2ccccc2)cc1)C(F)(F)F (centres undefined)
2. COc1cccc2c(O)c3c(O)c4c(c(O)c3c(O)c12)=C(O[C@H]1C[C@H](N)[C@H](O)[C@H](C)O1)C[C@](O)(C(=O)CO)C=4 [Doxorubicin HCl]
3. Cc1noc(C)c1-c1ccc(-c2cc(C(N)=O)c(NC(N)=O)s2)c(O[C@H]2CCNC2)c1
4. O=C1NCN(c2ccccc2)C12CCN(CCCC(c1ccc(F)cc1)c1ccc(F)cc1)CC2 [Fluspirilene]
5. COc1ncnc(NS(=O)(=O)c2ccc(N)cc2)c1OC
6. CC1(C)Oc2ccc(C#N)cc2[C@@H](N2CCCC2=O)[C@@H]1O.CC1(C)Oc2ccc(C#N)cc2[C@H](N2CCCC2=O)[C@H]1O [levcromakalim]

*A*
1. -0.27%
2. -34.4%
3. 4.03%
4. 5.04%
5. -8.08%
6. 4.22%

Each compound below has a recorded value; state its relative growth in counter assay.
1. O=[N+]([O-])c1ccc2nc(COCc3nc4ccc([N+](=O)[O-])cc4[nH]3)[nH]c2c1
2. COC(=O)Nc1nc2ccc(Sc3ccccc3)cc2[nH]1
3. Oc1cc2c(cc1O)[C@@H]1c3ccc(O)c(O)c3OC[C@]1(O)C2 [Hematoxylin (Hydroxybrazilin)]
4. C=C1/C(=C\C=C2/CCC[C@]3(C)[C@@H]([C@H](C)/C=C/C=C/C(O)(CC)CC)CC[C@@H]23)C[C@@H](O)C[C@@H]1O [Seocalcitol]
5. CC(C)COCC(CN(Cc1ccccc1)c1ccccc1)N1CCCC1 (centres undefined) [bepridil]

*A*
1. -3.14%
2. -32.4%
3. -6.89%
4. 14.2%
5. -3.99%

Below is a list of compounds. For each, state its recorded relative growth in counter assay.
1. O=C(/C=C/c1ccc(O)cc1)c1ccc(O)cc1O [Isoliquiritigenin]
2. C=C1C(=O)O[C@@H]2C[C@@]3(C)CCC[C@H](C)C3=C[C@H]12 [alantolactone]

*A*
1: -7.18%; 2: -28%

*Q* Suppose we examine the compound NC(=O)c1cn([C@@H]2O[C@H](CO)[C@@H](O)[C@H]2O)c2ncnc(N)c2c1=O ; what relative growth in counter assay value has been reported?
*A* -10.5%
